test system: Bacteroides stercoris; test: growth AUC relative to DMSO control (median of replicates) (fraction); higher = more growth (less inhibition), active = hit call of the paper; conditions: 20 µM; 24 h
1 means recorded growth AUC is 1 or above; 0 means it is below 1.

> print(dat)
                                    compound          target.system  classification
 1  COCC(=O)N(c1c(C)cccc1C)C(C)C(=O)O (stereo not given)  Bacteroides stercoris               1
 2        c1ccc2c(c1)-c1cccc3c1c-2cc1ccccc13  Bacteroides stercoris               1
 3  CCOC(=O)/C(Cl)=C/c1cc(N2C(=O)C3=C(CCCC3)C2=O)ccc1Cl  Bacteroides stercoris               0
 4            O=C(O)[C@@H](S)[C@@H](S)C(=O)O  Bacteroides stercoris               1
 5  Br[C@@H]1CC[C@@H](Br)[C@@H](Br)CC[C@@H](Br)[C@@H](Br)CC[C@H]1Br  Bacteroides stercoris               0
 6  O=[N+]([O-])c1ccc(Oc2c(Cl)cc(Cl)cc2Cl)cc1  Bacteroides stercoris               1
 7  CC(C)(NC(=O)C(Br)C(C)(C)C)c1ccccc1 (stereo not given)  Bacteroides stercoris               0
 8                   O=[N+]([O-])c1ccc(O)cc1  Bacteroides stercoris               1
 9  CC(=O)CC(c1ccccc1)c1c(O)c2ccccc2oc1=O (stereo not given)  Bacteroides stercoris               0
10                     CC(C)CNC(=O)N1CCNC1=O  Bacteroides stercoris               1
11  COc1cc(OC)nc(NC(=O)NS(=O)(=O)N(C)S(C)(=O)=O)n1  Bacteroides stercoris               1
12    C#CCN(C)c1c(C#N)cnn1-c1nn2c(c1Cl)CCCC2  Bacteroides stercoris               0
13  COc1nc(OC)nc(C(=O)c2cccc(F)c2N(C)S(=O)(=O)C(F)F)n1  Bacteroides stercoris               1
14                     O=C(O)Cc1cccc2ccccc12  Bacteroides stercoris               0
15                       COc1cc(OC)c(Cl)cc1N  Bacteroides stercoris               1
16                     CCNc1nc(N)[nH]c(=O)n1  Bacteroides stercoris               1
17             CC(C)c1cccc2c(=O)c3ccccc3sc12  Bacteroides stercoris               1
18             COc1cc(Cl)ccc1Oc1ccc(Cl)cc1Cl  Bacteroides stercoris               0
19               CC(C)N(C(=O)C(=O)O)c1ccccc1  Bacteroides stercoris               1
20  CCc1cc(C(=O)O)cc(CC)c1C1C(=O)N2CCOCCN2C1=O  Bacteroides stercoris               1
21  COC(=O)c1ccc(CNS(C)(=O)=O)cc1S(=O)(=O)NC(=O)Nc1nc(OC)cc(OC)n1  Bacteroides stercoris               0
22  O=C(Oc1ccccc1)n1c(C(F)(F)F)nc2cc(Cl)c(Cl)cc21  Bacteroides stercoris               0
23                O=c1cc(Cl)[nH]nc1-c1ccccc1  Bacteroides stercoris               0
24  CCC(C)c1cc([N+](=O)[O-])cc([N+](=O)[O-])c1OC(=O)OC(C)C (stereo not given)  Bacteroides stercoris               0
25       [O-][n+]1nc(-n2ccnc2)nc2ccc(Cl)cc21  Bacteroides stercoris               0
26          CCc1nc2ncnn2c(N)c1CCCCCC(=O)O.Cl  Bacteroides stercoris               1

Each recorded value in this set is attributed to the supplement of paper PMC12669032.
